- assayed.system: human adenosine A1 receptors expressed in CHO cells (Homo sapiens, UniProt P30542)
- Construct: expressed in transfected cells; host or cells: CHO cells
- Sequence (P30542 whole entry): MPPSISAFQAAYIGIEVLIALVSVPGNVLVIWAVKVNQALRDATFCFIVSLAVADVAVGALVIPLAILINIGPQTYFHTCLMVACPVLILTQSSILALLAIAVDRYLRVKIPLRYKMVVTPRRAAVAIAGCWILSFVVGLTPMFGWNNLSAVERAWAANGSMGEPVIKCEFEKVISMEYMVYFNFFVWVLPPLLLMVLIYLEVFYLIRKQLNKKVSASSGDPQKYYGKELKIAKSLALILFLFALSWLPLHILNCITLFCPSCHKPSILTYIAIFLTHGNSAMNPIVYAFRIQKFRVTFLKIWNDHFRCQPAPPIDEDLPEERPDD
- procedure.details: cAMP assay A1 (inhibition of forskolin-induced cAMP production)
- Format: cell-based
- protocol.conditions: compared to reference full agonist CPA (10 μM) in A1 CHO cells; tested at ±100 × Ki; ±SEM, n = 3; forskolin 10 μM
List of % inhib. A1 of forskolin-induced cAMP values.
Give just the numeric value; % need not be written.

Worked set:
compound="CCOC[C@H]1O[C@@H](n2cnc3c(NC4CCCC4)ncnc32)[C@H](O)[C@@H]1O [Compound 73, N^6-cyclopentyl-5′-O-ethyladenosine]" reported_value=69
compound="CCOC[C@H]1O[C@@H](n2cnc3c(N)ncnc32)[C@H](O)[C@@H]1O [Compound 72, 5′-O-Ethyladenosine]" reported_value=57
compound="O[C@@H]1[C@H](O)[C@@H](COC2CC2)O[C@H]1n1cnc2c(NC3CCCC3)ncnc21 [Compound 79]" reported_value=62

Which value of % inhib. A1 of forskolin-induced cAMP has been reported for COC[C@H]1O[C@@H](n2cnc3c(NCc4cccc(I)c4)nc(Cl)nc32)[C@H](O)[C@@H]1O [Compound 71] in the records?
37

---

- assayed.system: human A3 receptor as expressed in HEK 293 cells (Homo sapiens)
- Construct: expressed in transfected cells; host or cells: HEK 293 cells (membrane suspension)
- Sequence (P0DMS8 whole entry): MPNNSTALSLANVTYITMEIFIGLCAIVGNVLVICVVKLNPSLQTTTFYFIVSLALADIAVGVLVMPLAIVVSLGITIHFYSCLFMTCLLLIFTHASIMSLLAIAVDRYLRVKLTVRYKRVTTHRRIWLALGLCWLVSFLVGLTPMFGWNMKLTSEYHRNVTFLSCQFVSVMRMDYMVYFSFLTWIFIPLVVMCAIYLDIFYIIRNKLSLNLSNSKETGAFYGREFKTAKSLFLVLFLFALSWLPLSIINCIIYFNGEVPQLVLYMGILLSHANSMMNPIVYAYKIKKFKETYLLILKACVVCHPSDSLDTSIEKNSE
- procedure.details: Radioligand binding, displacement of [125I]AB MECA, HEK 293 cell membranes
- protocol.conditions: [125I]AB MECA, human A3 receptor in HEK 293 cells; read-out: Ki A3
endpoint.label: Ki (nM)
Give just the numeric value; nM need not be written.

Which value of Ki has been reported for OC[C@H]1O[C@@H](n2cnc3c(NC4CCCC4)ncnc32)[C@H](O)[C@@H]1O [CPA, reference compound] in the records?
281

---

- assayed.system: adenosine A1 receptor in rat brain cortex (Rattus norvegicus)
- Construct: the adenosine A1 receptor in rat brain cortex; from tissue; host or cells: rat brain cortex
- Sequence (P25099 whole entry): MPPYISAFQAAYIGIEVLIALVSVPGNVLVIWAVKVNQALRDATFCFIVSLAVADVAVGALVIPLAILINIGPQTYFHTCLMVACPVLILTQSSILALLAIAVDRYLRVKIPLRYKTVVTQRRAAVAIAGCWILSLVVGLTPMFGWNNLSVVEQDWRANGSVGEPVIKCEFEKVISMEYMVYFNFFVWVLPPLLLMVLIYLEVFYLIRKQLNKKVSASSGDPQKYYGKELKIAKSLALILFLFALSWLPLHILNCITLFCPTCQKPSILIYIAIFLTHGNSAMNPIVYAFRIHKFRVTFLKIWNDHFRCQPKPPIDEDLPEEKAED
- procedure.details: Radioligand binding, displacement of [3H]DPCPX from rat cortical membranes
- protocol.conditions: ligand 10^−5 M
endpoint.label: % displacement at 10^−5 M A1 (%)
Give just the numeric value; % need not be written.

Worked set:
mol=CCCSC[C@H]1O[C@@H](n2cnc3c(N)nc(NN=CCC(C)C)nc32)[C@H](O)[C@@H]1O assayed_system="adenosine A1 receptor in rat brain cortex (Rattus norvegicus)" reported_value=22.0
mol=CCSC[C@H]1O[C@@H](n2cnc3c(N)nc(NN=CCC(C)C)nc32)[C@H](O)[C@@H]1O assayed_system="adenosine A1 receptor in rat brain cortex (Rattus norvegicus)" reported_value=21.2
mol=Nc1nc(I)nc2c1ncn2[C@@H]1O[C@H](CO)[C@@H](O)[C@H]1O assayed_system="adenosine A1 receptor in rat brain cortex (Rattus norvegicus)" reported_value=36.1
mol=CC(C)CC=NNc1nc(N)c2ncn([C@@H]3O[C@H](CSC(C)C)[C@@H](O)[C@H]3O)c2n1 assayed_system="adenosine A1 receptor in rat brain cortex (Rattus norvegicus)" reported_value=13.0
mol=CSC[C@H]1O[C@@H](n2cnc3c(N)nc(NN=CCC(C)C)nc32)[C@H](O)[C@@H]1O assayed_system="adenosine A1 receptor in rat brain cortex (Rattus norvegicus)" reported_value=18.9

Please find the next compound below.
What % displacement at 10^−5 M A1 appears in the records for this compound with adenosine A1 receptor in rat brain cortex (Rattus norvegicus)? CC(C)CC=NNc1nc(N)c2ncn([C@@H]3O[C@H](CO)[C@@H](O)[C@H]3O)c2n1
18.9
